Numbers sourced from patent US20240139185A1.

- study-target: cyclophilin A (CYPA) (Homo sapiens, UniProt P62937)
- assay-overview: CYPA-compound binary complex formation by SPR
- assay-context: read-out: CYPA Binding Affinity
# key: entry, value: Kd

>  <compound>
CC1COC(=O)C2CCCN(N2)C(=O)C(NC(=O)C(C(C)C)N(C)C(=O)C2CN(C(=O)C(C)Cl)C2)Cc2cc(O)cc(c2)-c2ccc3c(C(C)(C)C#N)cn(c3c2)C1 (centres unmarked) [Compound 18]

>  <Kd>
> 15 µM

$$$$
>  <compound>
CC(C)[C@@H](C(=O)N[C@H]1Cc2cc(O)cc(c2)-c2ccc3nnn(c3c2)CC(C)(C)COC(=O)[C@@H]2CCCN(N2)C1=O)N(C)C(=O)C1CN(C(=O)CCl)C1 [Compound 175]

>  <Kd>
5 to 15 µM

$$$$
>  <compound>
C=CC(=O)N1CCN([C@H](C(=O)N[C@H]2Cc3cc(O)cc(c3)-c3ccc4ccn(c4c3)CCCOC(=O)[C@@H]3CCCN(N3)C2=O)C(C)C)C1=O [Compound 93]

>  <Kd>
≤ 5 µM

$$$$
>  <compound>
CC(C)[C@@H](C(=O)N[C@H]1Cc2cc(O)cc(c2)-c2ccc3c(-c4ccccc4F)cn(c3c2)CC(C)(C)COC(=O)[C@@H]2CCCN(N2)C1=O)N(C)C(=O)C1CN(C(=O)CCl)C1 [Compound 242]

>  <Kd>
> 15 µM

$$$$
>  <compound>
CC1COC(=O)[C@@H]2CCCN(N2)C(=O)[C@@H](NC(=O)[C@H](C(C)C)N(C)C(=O)C2CN(C(=O)CCl)C2)Cc2cc(O)cc(c2)-c2ccc3c(c2)c(cn3CC2COC2)C1 (single isomer, unassigned) [Compound 227]

>  <Kd>
5 to 15 µM

$$$$
>  <compound>
CC1COC(=O)[C@@H]2CCCN(N2)C(=O)[C@@H](NC(=O)[C@H](C(C)C)N(C)C(=O)C2CN(C(=O)CCl)C2)Cc2cc(O)cc(c2)-c2ccc3c(c2)N(CCO3)C1 (single isomer, unassigned) [Compound 183]

>  <Kd>
5 to 15 µM

$$$$
>  <compound>
C=CC(=O)N1CC2(CCN(C(C(=O)NC3Cc4cc(O)cc(c4)-c4ccc5c(C(C)(C)C#N)cn(c5c4)CC(C)(C)COC(=O)C4CCCN(N4)C3=O)C(C)C)C2=O)C1 (centres unmarked) [Compound 42]

>  <Kd>
5 to 15 µM

$$$$
>  <compound>
C=CC(=O)N1CCC(C(=O)N(C)C(C(=O)NC2Cc3cc(O)cc(c3)-c3ccc4c(c3)c(cn4C(C#N)(CC)CC)CC(C)(C)COC(=O)C3CCCN(N3)C2=O)C(C)CC)C1 (centres unmarked) [Compound 405]

>  <Kd>
5 to 15 µM

$$$$
>  <compound>
CC(C)C(C(=O)NC1Cc2cc(O)cc(c2)-c2ccc3c(C(=O)N(C)C)cn(c3c2)CC(C)(C)COC(=O)C2CCCN(N2)C1=O)N(C)C(=O)C1CN(C(=O)CCl)C1 (centres unmarked) [Compound 109]

>  <Kd>
> 15 µM

$$$$
>  <compound>
CC1COC(=O)C2CCCN(N2)C(=O)C(NC(=O)C(C(C)C)N(C)C(=O)C2CN(C(=O)CCl)C2)Cc2cc(O)cc(c2)-c2ccc3c(-c4ccccc4C#N)cn(c3c2)C1 (centres unmarked) [Compound 5]

>  <Kd>
≤ 5 µM

$$$$
>  <compound>
C=CC(=O)N1CCC(C(=O)N(C)C(C(=O)NC2Cc3cc(O)cc(c3)-c3ccc4c(C(C)(C)C#N)cn(c4c3)CC(C)(C)COC(=O)C3CCCN(N3)C2=O)C(C)C)C1 (centres unmarked) [Compound 89]

>  <Kd>
5 to 15 µM

$$$$

---

- study-target: BRAF-GTP-KRAS-G12C complex (Homo sapiens, UniProt P01116+P62937, G12C)
- Construct: 50 nM of His6-KRas G12C-GTP (1-169); 500 nM of tagless CypA (1-165)
- assay-overview: KRAS-BRAF complex disruption through competition with CYPA-compound by TR-FRET
- assay-context: biochemical BRAF-KRAS G12C-GTP disruption assay EC50, with CYPA
pEC50: −log10 of the molar value.
pEC50 reference

>  <compound>
Cc1nc2ccc3cc2n1CC(C)(C)COC(=O)[C@@H]1CCCN(N1)C(=O)[C@@H](NC(=O)[C@H](C(C)C)N(C)C(=O)CN1CC=CC1=O)Cc1cc(O)cc-3c1

>  <study-target>
BRAF-GTP-KRAS-G12C complex (Homo sapiens, UniProt P01116+P62937, G12C)

>  <pEC50>
< 5.30

$$$$
>  <compound>
CC(C)[C@@H](C(=O)N[C@H]1Cc2cc(O)cc(c2)-c2ccc3ncn(c3c2)CC(C)(C)COC(=O)[C@@H]2CCCN(N2)C1=O)N(C)C(=O)C1CN(C(=O)CCl)C1

>  <study-target>
BRAF-GTP-KRAS-G12C complex (Homo sapiens, UniProt P01116+P62937, G12C)

>  <pEC50>
≥ 6.30

$$$$
>  <compound>
C#CCOCc1cc2ccc3cc2n1C[C@H](C)COC(=O)[C@@H]1CCCN(N1)C(=O)[C@@H](NC(=O)[C@H](C(C)C)N(C)C(=O)C1CN(C(=O)CCl)C1)Cc1cc(O)cc-3c1

>  <study-target>
BRAF-GTP-KRAS-G12C complex (Homo sapiens, UniProt P01116+P62937, G12C)

>  <pEC50>
5.30 to 6.30

$$$$
>  <compound>
CC#CC(=O)N1CCN(C(=O)N(C)[C@H](C(=O)N[C@H]2Cc3cc(O)cc(c3)-c3ccc4c(C(C)(C)C#N)cn(c4c3)CC(C)(C)COC(=O)[C@@H]3CCCN(N3)C2=O)C(C)C)CC1

>  <study-target>
BRAF-GTP-KRAS-G12C complex (Homo sapiens, UniProt P01116+P62937, G12C)

>  <pEC50>
5.30 to 6.30

$$$$
>  <compound>
CC(C)[C@@H](C(=O)N[C@H]1Cc2cc(O)cc(c2)-c2ccc3c(-c4ccccc4F)cn(c3c2)CC(C)(C)COC(=O)[C@@H]2CCCN(N2)C1=O)N(C)C(=O)C1CN(C(=O)CCl)C1

>  <study-target>
BRAF-GTP-KRAS-G12C complex (Homo sapiens, UniProt P01116+P62937, G12C)

>  <pEC50>
≥ 6.30

$$$$
>  <compound>
CC(C)[C@@H](C(=O)N[C@H]1Cc2cc(O)cc(c2)-c2ccc3nc(-c4ccccc4C#N)n(c3c2)CCCOC(=O)[C@@H]2CCCN(N2)C1=O)N(C)C(=O)C1CN(C(=O)CCl)C1

>  <study-target>
BRAF-GTP-KRAS-G12C complex (Homo sapiens, UniProt P01116+P62937, G12C)

>  <pEC50>
5.30 to 6.30

$$$$
>  <compound>
CC(C)C(C(=O)NC1Cc2cc(O)cc(c2)-c2ccc3c(C(C)(C)C#N)cn(c3c2)CC(C)(C)COC(=O)C2CCCN(N2)C1=O)N1CCC2(CN(C(=O)CCl)C2)C1=O (stereo not shown)

>  <study-target>
BRAF-GTP-KRAS-G12C complex (Homo sapiens, UniProt P01116+P62937, G12C)

>  <pEC50>
≥ 6.30

$$$$

---

- study-target: BRAF-GTP-KRAS-G12C complex (Homo sapiens, UniProt P01116+P62937, G12C)
- Construct: 50 nM of His6-KRas G12C-GTP (1-169); 500 nM of tagless CypA (1-165)
- assay-overview: KRAS-BRAF complex disruption through competition with CYPA-compound by TR-FRET
- assay-context: biochemical BRAF-KRAS G12C-GTP disruption assay EC50, with CYPA
Quick reference for EC50 among some compounds

>  <compound>
CNC(=O)c1cn2c3cc(ccc13)-c1cc(O)cc(c1)C[C@H](NC(=O)[C@H](C(C)C)N(C)C(=O)C1CN(C(=O)CCl)C1)C(=O)N1CCC[C@H](N1)C(=O)OCC(C)(C)C2

>  <EC50>
≤ 0.5 µM

$$$$
>  <compound>
C=CC(=O)N1CCC(C(=O)N(C)C(C(=O)NC2Cc3cc(O)cc(c3)-c3ccc4c(c3)c(cn4C(C#N)(CC)CC)CC(C)(C)COC(=O)C3CCCN(N3)C2=O)C(C)CC)C1 (stereo not shown)

>  <EC50>
0.5 to 5 µM

$$$$
>  <compound>
CC(C)[C@@H](C(=O)N[C@H]1Cc2cc(O)cc(c2)-c2ccc3c(C(C)(C)C#N)cn(c3c2)CC(C)(C)COC(=O)[C@@H]2CCCN(N2)C1=O)N(C)C(=O)C1(F)CN(C(=O)[C@@H](C)Cl)C1

>  <EC50>
> 5 µM

$$$$
>  <compound>
CC(C)[C@@H](C(=O)N[C@H]1Cc2cc(O)cc(n2)-c2ccc3c(C(C)(C)C#N)cn(c3c2)C[C@H](C)CNC(=O)[C@@H]2CCCN(N2)C1=O)N(C)C(=O)C1CN(C(=O)CCl)C1

>  <EC50>
> 5 µM

$$$$
